This collection of values is drawn from a melting point compilation (Tetko et al.; mined from patent text by program, amines drawn as free bases though some values may be those of a salt).

Overview of reported melting point across a group of compounds:

Sample answers from the record:
CC12CCC(C1)C1(C)Oc3ccc(C(=O)Oc4ccc(C(=O)OCc5ccccc5)cc4)cc3C21C (centres undefined); 131 to 133 °C
Cc1c(C#N)sc2nc(-c3ccncc3)nc(N(C)CCO)c12; 194 to 195 °C
NCc1nnc(-c2ncn3c2[C@@H]2CCN2C(=O)c2sccc2-3)o1; 233 to 235 °C
N#Cc1cnc2cnc(Cl)cc2c1Nc1cccc(Br)c1; 220 to 223 °C
COC(=O)Cc1ccc(CNC(=O)C2Cc3ccccc3N2S(=O)(=O)c2ccc(-c3ccc(F)cc3OC)cc2)cc1 (centres undefined); 77 to 79 °C
Cc1ccnc(NC(c2ccc([N+](=O)[O-])cc2)c2ccc3cccnc3c2O)n1 (centres undefined); 136 to 145 °C

Recorded melting point for Clc1nc2ccccc2nc1OCCOc1ccccc1 , please?
99.5 to 102 °C

Recorded melting point for COc1cc(C(=O)N2CCN(C(=O)OC(C)(C)C)C(C=O)C2)cc(OC)c1OC (centres undefined) , please?
160 to 161 °C

Recorded melting point for CCOC(=O)c1cnn2c(C=O)c(Cc3cccc(F)c3C)c(-c3ccccc3)c2c1Cl , please?
110 to 111 °C

Recorded melting point for N#Cc1c2ccccc2c(-c2ccc(O[C@H](Cc3ccccc3)C(=O)O)cc2)c2c1sc1ccccc12 , please?
145 to 148 °C

Recorded melting point for CC(=O)N1CCN(CC(=O)Nc2nc(-c3ccccc3)c(-c3ccc(=O)n(C(C)C)n3)s2)CC1 , please?
220 to 222 °C

Recorded melting point for CCCCOc1ccc(S(=O)(=O)C2(C(=O)O)CCN(CCOc3ccccc3)CC2)cc1 , please?
204 °C

Recorded melting point for Cc1cc(C(=S)CN=[N+]=[N-])ccc1O , please?
124 to 129 °C

Recorded melting point for CCN1CCN(CC(=O)OCCOC)C(=O)c2ccc(Nc3ncc(Cl)c(Nc4ccccc4C(=O)NC)n3)cc21 , please?
198 to 202 °C

Recorded melting point for COc1cccc2c1nc(C1CC1)n2Cc1c(F)cccc1F , please?
136 to 139 °C

Recorded melting point for COc1cccc(C(F)(F)F)c1O , please?
51 to 53 °C

Recorded melting point for CCOc1ccc2[nH]c(=O)n(CCN(C(C)C)C(C)C)c2c1 , please?
89 °C

Recorded melting point for N#CCCNC(=O)c1n[nH]cc1NC(=O)c1ccccn1 , please?
223 to 224 °C

Recorded melting point for CCOC(=O)c1ccc(N2CCN(Cc3cc(C)c4c(c3)NC(=O)C(C)O4)CC2)nc1 (centres undefined) , please?
206 °C

----------
readout: melting point

Recorded melting point for CC1(C)Oc2ccc(C#N)cc2C(Oc2cccnn2)C1(C)O (centres undefined) , please?
93 to 105 °C

Recorded melting point for CCOC(=O)c1[nH]c2cc3[nH]c(C)c(C(=O)OCC)c3c(C)c2c1C , please?
216 °C

Recorded melting point for O=C(NCCCl)NC(c1cccc(C(F)(F)F)c1)C(F)(F)F (centres undefined) , please?
124 to 128 °C

Recorded melting point for CCCn1c(COC)nc2c(N)nc3ccc(OCCCN4CCOCC4)cc3c21 , please?
193 to 196 °C

Recorded melting point for CCC1Nc2cc(F)ccc2-n2cccc21 (centres undefined) , please?
49 to 51 °C

Recorded melting point for O=C(NC(C(=O)O)c1ccccc1)c1ccccc1SSc1ccccc1C(=O)NC(C(=O)O)c1ccccc1 (centres undefined) , please?
231 to 232 °C

Recorded melting point for CC(C)(C)c1ccc(CC(=O)O)c(Cc2ccc(CC(=O)O)cc2)c1 , please?
138 to 139 °C

Recorded melting point for OCCc1ncn(C(c2ccccc2)(c2ccccc2)c2ccccc2)n1 , please?
127 to 129 °C

Recorded melting point for COc1cc(Nc2nccc(-c3cccc(NC(=O)c4cc(C)on4)c3)n2)cc(OC)c1OC , please?
173 to 175 °C

Recorded melting point for N#Cc1ccc(N2CCCCC2)c2ccsc12 , please?
99 to 100 °C

----------
Overview of reported melting point across a group of compounds:

Sample answers from the record:
C[C@@H]1CN(c2ccc(N/C=C3\C(=O)NC(=O)c4ccc(-c5ccoc5)cc43)cc2)C[C@H](C)N1C; 204 to 205 °C
CC(C)C(C(=O)O)N1CC(N)C1=O (centres undefined); 178 to 183 °C
OC1(c2ccc(Cl)cc2)CCN(CCCn2cnc3ccccc32)CC1; 160 °C
COC(=O)c1ccc(N)c(S(C)(=O)=O)c1; 146 °C

Recorded melting point for CC(=NNC(=N)N)c1cccc(OCc2ccc3ccccc3n2)c1 , please?
57 to 59 °C

Recorded melting point for CCc1cc2c(c(CC)n1)CCC(=O)N2Cc1ccc(-c2ccccc2-c2nnn(C(c3ccccc3)(c3ccccc3)c3ccccc3)n2)cc1 , please?
165 to 167 °C

Recorded melting point for CSc1nccc(-c2c(-c3ccc(F)cc3)ncn2C2CCNCC2)n1 , please?
182 to 183 °C

Recorded melting point for O=c1[nH]c(=S)[nH]c2c1cnn2CC(O)c1ccccc1 (centres undefined) , please?
264 to 265 °C

Recorded melting point for CCOP(=O)(/C=C/c1cn(-c2ccccc2)nc1OCc1ccc(OCc2nc(-c3cccc(C(=O)OC)c3)oc2C)c(OC)c1)OCC , please?
112 to 113 °C

----------
readout: melting point

Sample answers from the record:
COc1ccc(Cl)cc1C(C)(C)O; 56 °C
CN(C)C1CCC(c2cc3ccccc3c(=O)[nH]2)CC1 (stereo not given); 256 to 258 °C
CCOC(=O)c1c(N2CCNCC2)c2ccc(C)nc2n(CC)c1=O; 137 to 139 °C
OC(CNC1=NCCCN1)c1ccccc1 (stereo not given); 188 °C
CN(C)CCOc1cc(C(=O)N2CCC(N(C)CCc3ccccc3)CC2)ccc1-n1cncn1; 83 to 85 °C
N#Cc1ccc2c3ccc(C#N)c4c(C#N)ccc(c5ccc(Br)c1c52)c43; 235 to 237 °C
C1=CNC2=NCCN2C1; 107 to 113 °C
CC(C)(C)N1Cc2ccccc2P1(=O)c1ccccc1 (stereo not given); 89 to 91 °C
Cc1cc(-c2ccc(C(F)(F)F)cc2)cc(-c2ccnc(-c3cccc(N)c3)n2)n1; 167 °C
COc1cc(C)cc(Sc2cccc(N)c2C#N)c1; 108 to 110 °C

Recorded melting point for OC(c1ccc(Cl)cc1)c1ccccc1Cl (stereo not given) , please?
68 to 70 °C

Recorded melting point for Clc1ccc2onc(CBr)c2c1 , please?
83 to 85 °C

Recorded melting point for CC(C)C[C@H](NC(=O)OCc1ccccc1)C(=O)N[C@@H](Cc1ccccc1)C(=O)CS(C)=O (stereo not given in full) , please?
97 to 102 °C

Recorded melting point for O=c1[nH]nc2c3c(cccc13)N=C(CN1CCCN(Cc3ccc(F)cc3)CC1)N2 , please?
163 to 165 °C

----------
Overview of reported melting point across a group of compounds:

Sample answers from the record:
Cn1cc(C(O)c2ccncc2)cc1C(=O)c1ccc(Cl)cc1 (stereo not given); 145 to 146 °C
Cc1nc(-c2cccc(C(=O)N[C@H]3CC[C@H](CCN4CCN(c5nccc6c5OCC6)CC4)CC3)c2)no1; 228 °C
Cc1ccc(NC(=O)NCc2ccc3c(c2)C(=O)N(C2(C)CCC(=O)NC2=O)C3=O)cc1Cl (stereo not given); 232 to 234 °C
COc1c(F)c(F)cc2c(=O)c(C(=O)O)cn(C3COC3)c12; 178 to 179 °C

Please find the next compound below.
Recorded melting point for CC1(C)Cc2cccc(S(N)(=O)=O)c2O1 , please?
160 to 162 °C

----------
Overview of reported melting point across a group of compounds:

Sample answers from the record:
C[C@H](Cc1ccc2c(c1)cc(C(=O)O)n2CC1CC1)NC[C@H](O)c1cccc(Cl)c1; 207 to 209 °C
COc1ccccc1N1CCN(S(=O)(=O)c2ccc(N)cc2)CC1; 230 to 232 °C
Cn1cnc2c(ccc3[nH]cc(CCN)c32)c1=O; 279 to 285 °C
COC(=O)c1ccc(Cl)cc1NC(=O)CSc1ccccc1Cl; 99 to 101 °C
COCC1(O)CCN(c2ccc(N3C[C@H](CNC(C)=O)OC3=O)cc2F)CC1; 80 to 82 °C

Recorded melting point for O=C1N[C@H](Cc2cccc(OC(F)(F)C(F)F)c2)[C@H](c2cccc(F)n2)O1 (racemic) , please?
118 to 119 °C

Recorded melting point for O=[N+]([O-])c1c(-c2c(C(F)(F)F)[nH]c(-c3ccc(Cl)cc3)c2[N+](=O)[O-])csc1Br , please?
186 to 190 °C

Recorded melting point for Cc1c2c(nn1C(C)C)c(N)nc1ccccc12 , please?
221 to 222 °C

Recorded melting point for CC(C)(C)[N+]([O-])=Cc1ccc(S(N)(=O)=O)cc1 , please?
219 °C

Recorded melting point for Cn1cc(C(=O)Nc2ccccc2-c2ccc(Cl)c(Cl)c2)c(C(F)(F)F)n1 , please?
131 to 133 °C

Recorded melting point for Nc1nsnc1-c1c(Cl)cccc1Cl , please?
95 to 97 °C

Recorded melting point for CC(C)(Cc1cccc(C(=O)c2cccc(CC(C)(C)C(=O)O)c2)c1)C(=O)O , please?
46 to 48 °C

Recorded melting point for CN(c1ncnc2c1ncn2Cc1ccccc1F)n1cccc1 , please?
147 to 149 °C

Recorded melting point for O=[N+]([O-])c1ccc(C=CS(=O)(=O)N=C(Cl)c2ccccc2)cc1 , please?
168 to 175 °C

Recorded melting point for Cc1cccc(Nc2cc(Nc3cccc(OCC(O)CN(C)C)c3)ncn2)c1 (stereo not given) , please?
120 to 122 °C

Recorded melting point for C#CC1N(C(=O)Oc2ccccc2)c2ccc(OC)cc2C23OC12CCCC3=O (stereo not given) , please?
186 to 188 °C

Recorded melting point for C=Cc1ccc(CN2CCNCCN(Cc3ccc(C=C)cc3)CC2)cc1 , please?
162 to 164 °C

Recorded melting point for Cn1nc(C(F)(F)F)c(CSC2=NOC(C)(CCl)C2)c1O (stereo not given) , please?
111 to 112 °C

Recorded melting point for COc1cc(OC2OC(CO)C(O)C(O)C2O)ccc1C=Cc1cc(C=Cc2ccc3cc[nH]c3c2)n[nH]1 (stereo not given) , please?
194 to 199 °C

Recorded melting point for CC(C)n1nc(-c2c(-c3ccccc3)nn3ccc(C(=O)NCc4cccnc4)cc23)ccc1=O , please?
192 to 193 °C
